- assay.summary: compound effects on multiple myeloma cell viability – MM1S, calcein-AM fluorescence, 48 h, basal, profiling panel (AID 1165); further: test concentration not given here
- condition.notes: higher = more signal
Exercise: state measured z-score for each of the compounds provided.
Answer with a bare number; do not write a unit.

Input line: Which z-score value is on record for OB1C=CCC(CCc2ccccc2)O1 (stereo not drawn) ?
Output line: 0.293

Input line: How about [N-]=[N+]=NCc1ccccc1[C@@H]1OC(c2ccc(OCCCO)cc2)=N[C@]1(CCS(=O)(=O)c1ccccc1)C(=O)N1CCOCC1 ?
Output line: 0.191

Input line: How about CCOC(=O)C1=CC[C@H]2C(=O)N(c3ccccc3)C(=O)[C@@H]12 ?
Output line: -0.472

Input line: How about COC(=O)C(CC#Cc1ccc2c(c1)[C@]1(C(=O)N2)[C@H](c2ccccc2OCCO)N2[C@H](c3ccccc3)[C@H](c3ccccc3)OC(=O)[C@H]2[C@@H]1C(N)=O)C(=O)OC ?
Output line: -3.38

Input line: How about O=C(NC1CC1)[C@@H]1c2ccccc2C(=O)N(Cc2cc(F)cc(C(F)(F)F)c2)[C@H]1c1ccc(CO)cc1 ?
Output line: -1.65

Input line: How about O=C1C2C=CC(C(O)c3c(F)cccc3Cl)N(Nc3ccccc3F)C2C(=O)N1c1ccccc1 (stereo not drawn) ?
Output line: 0.278

Input line: How about C=CC[C@@]1(C(=O)N2CCCCC2)N=C(c2ccc(OCCCO)cc2)O[C@@H]1c1ccccc1CN=[N+]=[N-] ?
Output line: -1.09

Input line: How about CCCCC(=C=CC[C@@H](O)c1cccc(OCCO)c1)C[C@@H](O)c1ccccn1 ?
Output line: 0.225
